SYSTEM TESTED: Serine/threonine-protein kinase RIO2 (Homo sapiens) (UniProt Q9BVS4)
Sequence (Q9BVS4 whole entry, looked up, the tested form may be a part): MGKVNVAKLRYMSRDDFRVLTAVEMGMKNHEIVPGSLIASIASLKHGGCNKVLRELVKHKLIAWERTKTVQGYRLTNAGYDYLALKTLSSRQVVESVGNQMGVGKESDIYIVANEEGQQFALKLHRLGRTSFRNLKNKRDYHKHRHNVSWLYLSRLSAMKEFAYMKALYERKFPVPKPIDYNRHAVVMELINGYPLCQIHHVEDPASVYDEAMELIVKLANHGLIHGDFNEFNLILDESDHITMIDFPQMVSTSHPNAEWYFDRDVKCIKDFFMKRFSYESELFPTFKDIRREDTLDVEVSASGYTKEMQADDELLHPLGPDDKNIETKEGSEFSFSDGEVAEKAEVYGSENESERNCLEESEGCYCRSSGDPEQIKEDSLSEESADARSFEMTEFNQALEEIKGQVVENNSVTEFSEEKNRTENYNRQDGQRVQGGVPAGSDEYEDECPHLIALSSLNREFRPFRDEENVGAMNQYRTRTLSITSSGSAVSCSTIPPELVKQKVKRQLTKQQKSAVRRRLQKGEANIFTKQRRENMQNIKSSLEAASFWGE
ASSAY EXPLANATION: Inhibition of N-terminal GST-fused full length human recombinant RIOK2 expressed in baculovirus Sf21 cells assessed as reduction in kinase auto-phosphorylation at 1 uM in presence of ATP incubated for 1 hr by ELISA method
Quick rule for you: inhibition at 30% or higher means satisfied, lower means not satisfied.

- STRUCTURE SMILES: "Cc1[nH]c(/C=C2\\C(=O)Nc3ccc(-c4cnn(-c5ccccc5)c4)cc32)c(C)c1C(=O)NC[C@@H]1CCCN1"
  LABEL: "not satisfied"
- STRUCTURE SMILES: "CCN(CC)CCNC(=O)c1c(C)[nH]c(/C=C2\\C(=O)Nc3ccc(-c4cnn(C5CCOCC5)c4)cc32)c1C"
  LABEL: "satisfied"
- STRUCTURE SMILES: "CCN(CC)CCNC(=O)c1c(C)[nH]c(/C=C2\\C(=O)Nc3ccc(-c4ccnn4-c4ccc(Cl)c(Cl)c4)cc32)c1C"
  LABEL: "not satisfied"

Consider the record given below.
Answer whether inhibition of Cc1[nH]c(/C=C2\C(=O)Nc3ccc(-c4cnn(-c5ccccc5)c4)cc32)c(C)c1C(=O)N[C@H]1CCCNC1 is greater than or equal to 30%.
not satisfied
